molecular target: mTORC2 (Homo sapiens, UniProt P42345+Q6R327+Q9BPZ7+Q9BVC4); test: Inhibition of mTORC2 (unknown origin); assay type: protein-complex assay
Sequence (Q6R327 whole entry, other chains not shown): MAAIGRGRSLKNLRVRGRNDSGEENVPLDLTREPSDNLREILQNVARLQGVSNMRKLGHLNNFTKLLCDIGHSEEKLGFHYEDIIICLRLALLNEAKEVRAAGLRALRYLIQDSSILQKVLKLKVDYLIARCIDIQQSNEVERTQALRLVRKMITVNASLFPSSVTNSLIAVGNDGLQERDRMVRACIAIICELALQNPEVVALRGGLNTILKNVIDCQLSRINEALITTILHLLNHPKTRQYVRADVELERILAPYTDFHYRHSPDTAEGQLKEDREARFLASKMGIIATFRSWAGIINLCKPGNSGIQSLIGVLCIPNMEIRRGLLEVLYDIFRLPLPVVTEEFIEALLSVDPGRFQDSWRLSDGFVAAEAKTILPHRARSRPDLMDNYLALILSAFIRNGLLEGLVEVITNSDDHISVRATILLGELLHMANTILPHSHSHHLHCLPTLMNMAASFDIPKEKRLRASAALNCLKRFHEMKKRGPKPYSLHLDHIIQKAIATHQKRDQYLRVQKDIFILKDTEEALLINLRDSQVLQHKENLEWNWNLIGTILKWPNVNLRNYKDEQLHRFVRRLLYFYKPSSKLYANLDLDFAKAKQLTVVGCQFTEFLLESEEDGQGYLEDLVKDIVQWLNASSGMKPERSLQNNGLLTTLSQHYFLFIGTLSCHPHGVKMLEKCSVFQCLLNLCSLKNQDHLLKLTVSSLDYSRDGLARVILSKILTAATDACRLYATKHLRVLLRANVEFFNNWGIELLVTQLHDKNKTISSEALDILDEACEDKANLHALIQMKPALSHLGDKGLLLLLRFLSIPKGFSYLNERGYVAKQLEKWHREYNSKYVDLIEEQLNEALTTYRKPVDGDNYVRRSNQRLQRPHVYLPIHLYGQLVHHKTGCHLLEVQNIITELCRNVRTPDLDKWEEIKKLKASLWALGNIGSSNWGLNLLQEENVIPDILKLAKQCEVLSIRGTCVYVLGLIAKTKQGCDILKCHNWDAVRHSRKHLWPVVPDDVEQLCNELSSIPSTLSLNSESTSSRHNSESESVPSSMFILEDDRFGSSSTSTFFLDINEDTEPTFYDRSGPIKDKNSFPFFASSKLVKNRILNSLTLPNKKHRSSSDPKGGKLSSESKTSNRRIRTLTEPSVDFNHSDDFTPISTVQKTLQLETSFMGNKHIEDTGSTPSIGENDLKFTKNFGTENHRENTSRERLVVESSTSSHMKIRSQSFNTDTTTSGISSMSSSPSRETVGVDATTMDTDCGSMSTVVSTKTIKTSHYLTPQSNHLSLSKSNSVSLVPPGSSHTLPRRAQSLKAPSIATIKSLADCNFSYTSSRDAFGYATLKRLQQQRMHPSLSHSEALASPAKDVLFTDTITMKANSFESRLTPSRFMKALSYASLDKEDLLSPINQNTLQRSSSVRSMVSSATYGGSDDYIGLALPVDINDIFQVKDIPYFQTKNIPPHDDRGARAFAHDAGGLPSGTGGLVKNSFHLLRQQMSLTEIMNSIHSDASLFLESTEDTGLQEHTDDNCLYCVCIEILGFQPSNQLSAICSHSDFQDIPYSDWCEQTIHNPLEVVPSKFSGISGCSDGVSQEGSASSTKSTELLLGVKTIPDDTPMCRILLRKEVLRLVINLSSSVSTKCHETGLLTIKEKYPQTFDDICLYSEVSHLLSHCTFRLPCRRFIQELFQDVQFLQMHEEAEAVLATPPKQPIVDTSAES
Sequence (Q9BPZ7 2-522 limits assumed, other chains not shown): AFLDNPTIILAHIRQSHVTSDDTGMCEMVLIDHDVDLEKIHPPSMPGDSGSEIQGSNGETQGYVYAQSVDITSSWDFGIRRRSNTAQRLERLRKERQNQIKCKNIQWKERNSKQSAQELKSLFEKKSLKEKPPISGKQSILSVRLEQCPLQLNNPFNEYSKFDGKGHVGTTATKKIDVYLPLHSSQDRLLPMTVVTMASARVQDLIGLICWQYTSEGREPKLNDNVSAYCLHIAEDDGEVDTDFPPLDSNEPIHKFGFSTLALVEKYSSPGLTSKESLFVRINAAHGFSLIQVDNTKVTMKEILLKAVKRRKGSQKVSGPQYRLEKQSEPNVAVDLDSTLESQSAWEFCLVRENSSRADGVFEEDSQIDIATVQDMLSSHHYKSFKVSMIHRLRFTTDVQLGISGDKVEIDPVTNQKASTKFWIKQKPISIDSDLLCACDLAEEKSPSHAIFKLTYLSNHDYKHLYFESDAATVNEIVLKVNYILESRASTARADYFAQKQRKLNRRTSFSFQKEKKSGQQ
Sequence (Q9BVC4 whole entry, other chains not shown): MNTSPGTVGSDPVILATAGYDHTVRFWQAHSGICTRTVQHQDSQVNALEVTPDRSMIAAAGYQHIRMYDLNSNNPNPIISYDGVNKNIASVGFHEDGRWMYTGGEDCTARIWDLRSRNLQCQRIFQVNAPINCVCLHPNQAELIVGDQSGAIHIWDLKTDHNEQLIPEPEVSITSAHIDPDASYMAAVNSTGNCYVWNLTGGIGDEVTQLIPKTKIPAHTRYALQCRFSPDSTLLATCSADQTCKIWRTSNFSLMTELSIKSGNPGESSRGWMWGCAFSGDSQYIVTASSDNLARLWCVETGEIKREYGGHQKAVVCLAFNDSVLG
pIC50 for assorted molecules
Schema: pIC50 number; meaning minus log10 of the concentration expressed in molar units.

O=c1[nH]c2ncc(-c3ccc(-c4nc[nH]n4)cc3)nc2n1CCC1CCOCC1 | 7.40

Summary for this molecule, "Nc1ncc(-c2nc(N3C4CCC3COC4)nc(N3C4COCC3COC4)n2)c(C(F)F)n1" : pIC50 is 6.66

Lab book: pIC50 of "Nc1ncc(-c2nc(N3CCOCC3)nc3c2C[C@H]2COCCN32)cn1" noted as 5.90

Lab note: "Nc1ncc(-c2nc(N3CCOCC3)nc3c2C[C@@H]2COCCN32)cn1" gave pIC50 of 6.24

Given item "CC1(C)COCCN1c1nc(-c2cnc(N)cc2C(F)F)nc(N2CCOCC2(C)C)n1" , the value recorded as its pIC50 is 6.97

Form: molecule = "C[C@H]1COCCN1c1nc(-c2cnc(N)nc2C(F)F)nc(N2CCOCC2)n1" ; pIC50 = 7.46

Just so you know, measured pIC50 for "C[C@H]1COCCN1c1nc(-c2cnc(N)cc2C(F)F)nc(N2CCOCC2)n1" came out at 7.13
